Source: PubChem BioAssay AID504333

Biological target: Bromodomain adjacent to zinc finger domain protein 2B (Homo sapiens)
Assay: qHTS Assay for Inhibitors of BAZ2B; further: nearly all actives have a fitted effect of over 60% in size
Conditions: AlphaScreen BAZ2B-H3K14Ac peptide displacement; series mostly up to 114 µM
About 16,000 (4.4%) of roughly 360,000 compounds were called active. Not shown: some 9% with an inconclusive outcome. The call rests on the fitted dose curve; in most records, active means well fitted inhibition curve with a large enough effect; inconclusive means small, poorly fitted or top-dose-only effect; inactive means no such curve, though single readings can be large or run the other way. The entries come from a sample that favours actives as a whole.
Outcomes: TRUE for active, FALSE for inactive

INSERT INTO measurements (entrysmiles, testedon, classname) VALUES
  ('O=C(C1CCN(Cc2ccc(Cl)cc2)CC1)N1CCN(Cc2ccc3c(c2)OCO3)CC1', 'Bromodomain adjacent to zinc finger domain protein 2B (Homo sapiens)', 'TRUE'),
  ('COc1cc(OC)c(NC(=O)c2cnc(N3CCCC3)nc2C)cc1Cl', 'Bromodomain adjacent to zinc finger domain protein 2B (Homo sapiens)', 'FALSE'),
  ('O=C(C1CCN(S(=O)(=O)c2cnc[nH]2)CC1)N1CCN(Cc2ccc3c(c2)OCO3)CC1', 'Bromodomain adjacent to zinc finger domain protein 2B (Homo sapiens)', 'FALSE'),
  ('Cc1nn(Cc2ccccc2)c(C)c1C(=O)NCCN1C(=O)S/C(=C\c2ccc(F)cc2)C1=O', 'Bromodomain adjacent to zinc finger domain protein 2B (Homo sapiens)', 'FALSE'),
  ('Cc1cc(NC(=O)CSc2nnc(-c3ccc(Cl)s3)o2)no1', 'Bromodomain adjacent to zinc finger domain protein 2B (Homo sapiens)', 'TRUE');

====

Biological target: Bromodomain adjacent to zinc finger domain protein 2B (Homo sapiens) (UniProt Q9UIF8)
Sequence (Q9UIF8 whole entry, looked up, the tested form may be a part): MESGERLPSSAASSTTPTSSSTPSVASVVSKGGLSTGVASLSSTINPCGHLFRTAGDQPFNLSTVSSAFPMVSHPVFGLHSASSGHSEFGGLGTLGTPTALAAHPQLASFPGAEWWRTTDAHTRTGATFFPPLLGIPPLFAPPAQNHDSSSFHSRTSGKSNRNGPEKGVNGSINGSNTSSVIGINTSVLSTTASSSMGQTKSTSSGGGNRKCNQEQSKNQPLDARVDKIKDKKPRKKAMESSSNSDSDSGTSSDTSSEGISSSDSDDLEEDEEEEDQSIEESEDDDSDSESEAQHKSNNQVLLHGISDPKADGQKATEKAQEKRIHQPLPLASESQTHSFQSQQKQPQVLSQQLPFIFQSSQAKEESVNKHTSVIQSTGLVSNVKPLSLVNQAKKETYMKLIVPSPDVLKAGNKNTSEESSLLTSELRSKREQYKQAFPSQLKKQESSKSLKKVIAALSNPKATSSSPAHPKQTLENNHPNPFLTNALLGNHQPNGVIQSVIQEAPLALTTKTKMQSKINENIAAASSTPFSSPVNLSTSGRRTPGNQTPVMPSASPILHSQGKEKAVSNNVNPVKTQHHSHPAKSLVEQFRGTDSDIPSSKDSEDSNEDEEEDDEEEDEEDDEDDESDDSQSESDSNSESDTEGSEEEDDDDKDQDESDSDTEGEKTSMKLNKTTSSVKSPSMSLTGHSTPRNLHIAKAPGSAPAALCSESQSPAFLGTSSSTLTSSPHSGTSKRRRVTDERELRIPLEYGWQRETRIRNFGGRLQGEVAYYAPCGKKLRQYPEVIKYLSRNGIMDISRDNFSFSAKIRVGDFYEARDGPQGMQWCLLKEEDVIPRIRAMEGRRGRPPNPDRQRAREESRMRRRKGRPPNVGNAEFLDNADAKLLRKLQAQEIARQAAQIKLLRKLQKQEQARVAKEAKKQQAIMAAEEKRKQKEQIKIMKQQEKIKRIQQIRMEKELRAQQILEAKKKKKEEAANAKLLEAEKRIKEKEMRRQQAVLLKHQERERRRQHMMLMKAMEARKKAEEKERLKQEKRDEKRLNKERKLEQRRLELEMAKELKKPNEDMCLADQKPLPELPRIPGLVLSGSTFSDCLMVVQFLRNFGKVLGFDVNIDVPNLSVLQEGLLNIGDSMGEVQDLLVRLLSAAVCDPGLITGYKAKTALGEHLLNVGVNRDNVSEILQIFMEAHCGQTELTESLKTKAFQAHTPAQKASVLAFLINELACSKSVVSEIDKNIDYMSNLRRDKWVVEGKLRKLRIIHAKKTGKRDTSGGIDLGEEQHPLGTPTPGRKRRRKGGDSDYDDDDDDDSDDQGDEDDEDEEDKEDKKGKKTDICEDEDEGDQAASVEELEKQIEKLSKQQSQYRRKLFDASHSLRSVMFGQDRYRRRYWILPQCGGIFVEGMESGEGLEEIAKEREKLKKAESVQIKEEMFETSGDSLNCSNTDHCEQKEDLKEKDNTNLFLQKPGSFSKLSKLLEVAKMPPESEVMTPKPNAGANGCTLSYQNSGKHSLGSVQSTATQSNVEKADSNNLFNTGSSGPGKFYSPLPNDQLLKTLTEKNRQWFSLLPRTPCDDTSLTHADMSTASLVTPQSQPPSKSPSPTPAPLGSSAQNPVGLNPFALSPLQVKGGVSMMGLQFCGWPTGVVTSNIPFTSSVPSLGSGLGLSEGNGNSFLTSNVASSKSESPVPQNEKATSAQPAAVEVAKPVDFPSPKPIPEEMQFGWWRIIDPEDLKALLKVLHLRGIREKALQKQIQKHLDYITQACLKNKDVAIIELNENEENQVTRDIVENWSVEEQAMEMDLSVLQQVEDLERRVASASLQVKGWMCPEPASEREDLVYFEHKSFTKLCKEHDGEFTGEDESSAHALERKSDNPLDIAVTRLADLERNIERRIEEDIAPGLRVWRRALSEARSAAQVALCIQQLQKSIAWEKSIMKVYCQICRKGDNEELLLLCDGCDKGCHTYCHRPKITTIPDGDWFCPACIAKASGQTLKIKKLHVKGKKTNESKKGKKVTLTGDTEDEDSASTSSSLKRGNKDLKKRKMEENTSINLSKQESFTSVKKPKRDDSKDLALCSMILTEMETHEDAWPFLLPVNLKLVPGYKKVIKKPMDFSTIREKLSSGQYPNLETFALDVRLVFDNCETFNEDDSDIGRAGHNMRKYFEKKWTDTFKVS
Assay: qHTS Assay for Inhibitors of BAZ2B; further: nearly all actives have a fitted effect of over 60% in size
Details: AlphaScreen BAZ2B-H3K14Ac peptide displacement; series mostly up to 114 µM
Screen size: about 360,000 compounds; about 16,000 (4.4%) were called active. Roughly 9% stayed inconclusive and do not appear here. Calls come from the whole dose curve; as a rule, active = well fitted inhibition curve with a large enough effect; inconclusive = small, poorly fitted or top-dose-only effect; inactive = no such curve, though single readings can be large or run the other way. For the sample, actives were picked, then their nearest neighbours and some compounds at random.
Outcomes: 1 for active, -1 for inactive

INSERT INTO assay_data (compound, classname) VALUES
  ('CCOC(=O)c1c(NC(C)=O)c2c3c(sc2n1Cc1c(C)cc(C)cc1C)CCCC3', -1),
  ('COc1ccc2c(c1)c(N1CCCC1=O)c(C(=O)Nc1ccccc1C(F)(F)F)n2C', -1),
  ('O=C1c2ccccc2C(=O)C1c1ccccc1F', -1),
  ('O=C1c2ccccc2C2=Nc3ccccc3SC(c3ccccc3F)C12 (stereo unspecified)', 1),
  ('COc1ccc(CC(=O)NCCc2sc3nc(-c4ccc(OC)cc4)nn3c2C)cc1', -1),
  ('COc1ccc2sc(-c3ccc(N(C)C)cc3)c(C#CCO)c2c1', 1);

====

Target: Bromodomain adjacent to zinc finger domain protein 2B (Homo sapiens) (UniProt Q9UIF8)
Assay: qHTS Assay for Inhibitors of BAZ2B; further: nearly all actives have a fitted effect of over 60% in size
Details: AlphaScreen BAZ2B-H3K14Ac peptide displacement; series mostly up to 114 µM
About 16,000 (4.4%) of roughly 360,000 compounds were called active. Roughly 9% stayed inconclusive and do not appear here. Calls come from the whole dose curve; as a rule, active = well fitted inhibition curve with a large enough effect; inconclusive = small, poorly fitted or top-dose-only effect; inactive = no such curve, though single readings can be large or run the other way. This excerpt belongs to a sample that is enriched for actives.
Outcomes: yes (1) = active, no (0) = inactive

INSERT INTO measurements (compound, classname) VALUES
  ('O=C(Nc1cc(C(F)(F)F)ccc1Cl)c1ccc2c(c1)CCN2S(=O)(=O)c1ccccc1', 'no (0)'),
  ('COc1cc(C2c3c(oc4ccccc4c3=O)C(=O)N2c2nc(C)c(C)s2)ccc1O (stereo unspecified)', 'no (0)'),
  ('O=C(c1ccc(Br)cc1)N(Cc1cccs1)c1ccc(F)cc1', 'no (0)'),
  ('O=C(COC(=O)c1ccccc1SCC(=O)N1CCCC1)Nc1ccccc1OC(F)F', 'no (0)'),
  ('COC(=O)c1scc(-c2ccc(C)cc2)c1S(=O)(=O)Nc1cc(Cl)c(OC)cc1OC', 'no (0)'),
  ('COc1cc(/C=C/C2=CC(C)(C)NC(=S)N2)cc(OC)c1OC', 'no (0)'),
  ('CCc1cccc(NC(=O)Cn2nc(CC)n3c(cc4cc(C)ccc43)c2=O)c1', 'no (0)'),
  ('COc1cc(NS(=O)(=O)c2ccc3ccccc3c2)c2ncccc2c1', 'no (0)'),
  ('COc1ccc(C2=NC(c3ccncc3)=Nc3ccc(Br)cc3N2)cc1', 'yes (1)'),
  ('O=[N+]([O-])c1ccccc1S(=O)(=O)Nc1cccc2cccnc12', 'yes (1)'),
  ('Cc1cccn2c(=O)c3cc(C(=O)NC(C)c4ccccc4)c(=N)n(CCCO)c3nc12 (stereo unspecified)', 'no (0)'),
  ('Cc1ccccc1NC(=O)c1ccccc1NS(=O)(=O)c1cccc2cccnc12', 'no (0)'),
  ('Cc1cc(C)c2sc(NC(=O)c3ccc(S(=O)(=O)N4CCCC4)cc3)nc2c1', 'no (0)'),
  ('COc1ccc(/C=C2/C(=O)OCc3cc(OC)c(OC)cc32)c(OC)c1', 'no (0)'),
  ('COc1ccc(/C=C/C2=CC(C)(C)NC(=S)N2)c(OC)c1', 'yes (1)'),
  ('COc1ccc(CNC(=O)c2cc3c(s2)-c2ccccc2OC3)cc1', 'no (0)'),
  ('O=C(NCc1ccccc1)c1cccc(NC(=O)N2CCSc3ncccc32)c1', 'no (0)'),
  ('CSc1cccc(NC(=O)CN2C(=O)CCc3cc(S(=O)(=O)N4CCCCC4)ccc32)c1', 'no (0)'),
  ('Brc1ccc2c(c1)NC(c1cccnc1)=NC(c1ccccc1)=N2', 'no (0)'),
  ('CC(C)c1ccc(NC(=O)CN(C)S(=O)(=O)c2ccc3c(c2)c(=O)n(C)c(=O)n3C)cc1', 'no (0)'),
  ('COc1ccc(NC(=O)CN2CCCN(Cc3ccccc3)S2(=O)=O)cc1', 'no (0)');
